Entry source: ChEMBL document CHEMBL1139338

targetOfAssay: Liver carboxylesterase 1 (Homo sapiens)
Sequence (P23141 whole entry): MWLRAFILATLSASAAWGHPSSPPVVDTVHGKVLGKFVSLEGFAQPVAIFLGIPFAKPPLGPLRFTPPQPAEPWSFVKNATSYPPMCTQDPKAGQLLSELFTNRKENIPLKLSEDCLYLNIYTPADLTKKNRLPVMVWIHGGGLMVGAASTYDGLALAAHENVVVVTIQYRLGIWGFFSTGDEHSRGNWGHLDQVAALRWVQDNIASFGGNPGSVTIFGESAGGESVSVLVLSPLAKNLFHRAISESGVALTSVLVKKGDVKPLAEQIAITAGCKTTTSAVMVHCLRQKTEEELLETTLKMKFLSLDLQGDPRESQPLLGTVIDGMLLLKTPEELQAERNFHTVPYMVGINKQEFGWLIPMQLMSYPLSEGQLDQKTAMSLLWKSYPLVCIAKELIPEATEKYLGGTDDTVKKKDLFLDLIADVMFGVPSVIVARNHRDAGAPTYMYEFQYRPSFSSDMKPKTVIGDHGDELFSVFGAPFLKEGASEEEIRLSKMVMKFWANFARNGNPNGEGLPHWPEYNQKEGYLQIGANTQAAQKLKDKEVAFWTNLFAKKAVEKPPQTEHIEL
testSummary: Inhibition of human carboxylesterase 1 after 5 mins
So basically, if Ki comes in under 300 nM it's YES, and if it's 300 nM or more it's NO.

q: Does the reported Ki of `OC(O)(CSCCc1ccccc1)C(F)(F)F` stay below 300 nM?
a: NO

q: Moving on to CCCCCC[S+]([O-])CC(O)(O)C(F)(F)F (configuration not stated)
a: NO

q: Moving on to `CCCCSCC(=O)C(F)(F)F`
a: NO

q: Moving on to `CCCCCCSCC(=O)C(F)(F)F`
a: NO

q: Moving on to `CCCCCCCCS(=O)(=O)CC(O)(O)C(F)(F)F`
a: NO

q: Moving on to `CCCCCCS(=O)(=O)CC(O)(O)C(F)(F)F`
a: NO

q: Moving on to CCCCCCCCCC[S+]([O-])CC(O)(O)C(F)(F)F (configuration not stated)
a: NO

q: Moving on to `CCCCCCCCCCSCC(=O)C(F)(F)F`
a: YES

q: Moving on to `CCCCCCCCCCCCSCC(=O)C(F)(F)F`
a: YES

q: Moving on to `CCCCCCCCCCCCS(=O)(=O)CC(O)(O)C(F)(F)F`
a: NO

q: Moving on to CCCCCCCC[S+]([O-])CC(O)(O)C(F)(F)F (configuration not stated)
a: NO

q: Moving on to `CCCCCCCCSCC(=O)C(F)(F)F`
a: YES

q: Moving on to `CCCCCCCCCCC(=O)C(F)(F)F`
a: YES

q: Moving on to `O=C(CSCCc1ccccc1)C(F)(F)F`
a: YES

q: Moving on to `CCCCCCCCCCS(=O)(=O)CC(O)(O)C(F)(F)F`
a: NO

q: Moving on to `CCCCCCOCC(O)(O)C(F)(F)F`
a: NO

q: Moving on to CCCCCCCCCCCC[S+]([O-])CC(O)(O)C(F)(F)F (configuration not stated)
a: NO

---

testSummary: Lipophilicity, log P of the compound
Format: physicochemical
statedConditions: octanol/water; read-out: logP
Assign class by logP: not lower than 5 means 1 (yes); lower than 5 means 0 (no).

q: Can `Cc1ccc(C(=O)C(=O)c2ccccc2)cc1[N+](=O)[O-]` be said to have logP at or above 5?
a: 0 (no)

q: Moving on to `O=C(C(=O)c1c(Cl)c(Cl)c(Cl)c(Cl)c1Cl)c1c(F)c(F)c(F)c(F)c1F`
a: 1 (yes)

q: Moving on to `O=C(C(=O)c1cc(Br)cs1)c1cc(Br)cs1`
a: 0 (no)

q: Moving on to `COc1cc(Br)ccc1C(=O)C(=O)c1ccc(Br)cc1OC`
a: 0 (no)

q: Moving on to `O=C(C(=O)c1ccc(Cl)cc1)c1ccccc1`
a: 0 (no)

q: Moving on to `O=C(C(=O)c1ccc([N+](=O)[O-])cc1[N+](=O)[O-])c1ccccc1`
a: 0 (no)

q: Moving on to `O=C(C(=O)c1cccs1)c1cccs1`
a: 0 (no)

q: Moving on to `Cc1ccc(C(=O)C(=O)c2ccc(C)cc2)cc1`
a: 0 (no)

q: Moving on to `O=C(C(=O)c1ccc2ccccc2c1)c1ccc2ccccc2c1`
a: 1 (yes)

q: Moving on to `O=C(C(=O)c1ccccn1)c1ccccn1`
a: 0 (no)

q: Moving on to `Cc1ccc(C(=O)C(=O)c2ccccc2)cc1C`
a: 0 (no)

---

testSummary: Inhibition of human intestinal carboxylesterase after 24 hrs
measuredProperty: pKi
// return a plain number; no unit text

q: What measured pKi goes with `O=C(CSCCc1ccccc1)C(F)(F)F` ?
a: 8.32

q: Moving on to `CCCCCCOCC(O)(O)C(F)(F)F`
a: 8.92

q: Moving on to `CCCCSCC(=O)C(F)(F)F`
a: 7.78

q: Moving on to `OC(O)(CSCCc1ccccc1)C(F)(F)F`
a: 6.93

q: Moving on to `CCCCCCS(=O)(=O)CC(O)(O)C(F)(F)F`
a: 8.43

q: Moving on to CCCCCCCCCCCC[S+]([O-])CC(O)(O)C(F)(F)F (configuration not stated)
a: 9.4

q: Moving on to `CCCCCCSCC(=O)C(F)(F)F`
a: 8.19

---

For each of the molecules below, state its pKi.
testSummary: Inhibition of rabbit carboxylesterase
Parameters: species or system Oryctolagus cuniculus
// return a plain number; no unit text

q: What measured pKi goes with `COc1ccc(C(=O)C(=O)c2ccccc2)cc1` ?
a: 6.7

q: Moving on to `O=C(C(=O)c1ccc(Cl)cc1)c1ccccc1`
a: 7.62

q: Moving on to `O=C(C(=O)c1ccc2ccccc2c1)c1ccc2ccccc2c1`
a: 8.98

q: Moving on to `Cc1ccc(C(=O)C(=O)c2ccccc2)cc1`
a: 6.92

q: Moving on to `O=C(C(=O)c1cccs1)c1cccs1`
a: 6.06

q: Moving on to `O=C(C(=O)c1ccc(Br)s1)c1ccc(Br)s1`
a: 8.15

q: Moving on to `O=C(C(=O)c1ccccn1)c1ccccn1`
a: 6.32

---

testSummary: Inhibition of rabbit carboxylesterase after 5 mins
Set-up: species or system Oryctolagus cuniculus
measuredProperty: pKi

q: What measured pKi goes with `O=C(CSCCc1ccccc1)C(F)(F)F` ?
a: 6.39

q: Moving on to CCCCCCCCCC[S+]([O-])CC(O)(O)C(F)(F)F (stereo not given)
a: 5.6

q: Moving on to CCCCCCCCCCCC[S+]([O-])CC(O)(O)C(F)(F)F (stereo not given)
a: 5.96

q: Moving on to CCCCCC[S+]([O-])CC(O)(O)C(F)(F)F (stereo not given)
a: 4.64

q: Moving on to `CCCCCCCCSCC(=O)C(F)(F)F`
a: 6.82

q: Moving on to `CCCCCCCCS(=O)(=O)CC(O)(O)C(F)(F)F`
a: 5.32

q: Moving on to `CCCCCCCCCCSCC(=O)C(F)(F)F`
a: 6.8

q: Moving on to `CCCCCCOCC(O)(O)C(F)(F)F`
a: 5.57

q: Moving on to `CCCCCCCCCCC(=O)C(F)(F)F`
a: 6.85

q: Moving on to `CCCCCCS(=O)(=O)CC(O)(O)C(F)(F)F`
a: 4.82

---

testSummary: Lipophilicity, log P of the compound
Format: physicochemical
statedConditions: octanol/water; read-out: logP
Assign class by logP: not lower than 4 means 1 (yes); lower than 4 means 0 (no).

q: Can `COc1ccc(C(=O)C(=O)c2ccccc2)cc1` be said to have logP at or above 4?
a: 0 (no)

q: Moving on to `O=C(C(=O)c1ccc(C(=O)C(=O)c2ccccc2)cc1)c1ccccc1`
a: 1 (yes)

q: Moving on to CC[C@H](C)C(=O)O[C@H]1C[C@@H](C)C=C2C=C[C@H](C)[C@H](CC[C@@H]3C[C@@H](O)CC(=O)O3)[C@H]21 [LOVASTATIN]
a: 1 (yes)

q: Moving on to `O=C(C(=O)c1ccc(CBr)cc1)c1ccccc1`
a: 1 (yes)

q: Moving on to `O=C(C(=O)c1ccc(Br)s1)c1ccc(Br)s1`
a: 1 (yes)

q: Moving on to `O=C(O)c1ccc(C(=O)C(=O)c2ccccc2)cc1`
a: 0 (no)

q: Moving on to COC(=O)[C@H]1[C@@H](OC(=O)c2ccccc2)C[C@@H]2CC[C@H]1N2C [COCAINE]
a: 0 (no)

q: Moving on to `COc1ccc(C(=O)C(=O)c2ccc(OC)cc2)cc1`
a: 0 (no)

q: Moving on to CC(=O)Oc1ccccc1C(=O)O [ASPIRIN]
a: 0 (no)

---

For each of the compounds below, state its logP.
testSummary: Lipophilicity, log P of the compound
Format: physicochemical
statedConditions: octanol/water; read-out: logP
// return a plain number; no unit text

q: What measured logP goes with `CC(=O)Oc1ccc2c3c1O[C@H]1[C@@H](OC(C)=O)C=C[C@H]4[C@@H](C2)N(C)CC[C@@]341` ?
a: 1.5

q: Moving on to `O=C(C(=O)c1ccc(F)cc1)c1ccc(F)cc1`
a: 3.76

q: Moving on to `Cc1ccc(C(=O)C(=O)c2ccc(Cl)cc2)cc1`
a: 4.67

q: Moving on to `O=C(C(=O)c1cc(F)c(F)c(F)c1)c1cc(F)c(F)c(F)c1`
a: 4.07

q: Moving on to `CC(=O)Oc1ccc2c(C)cc(=O)oc2c1`
a: 2.11

---

For each of the compounds below, state its pKi.
testSummary: Inhibition of rabbit carboxylesterase
Parameters: species or system Oryctolagus cuniculus
// return a plain number; no unit text

q: What measured pKi goes with `O=C(C(=O)c1cc(F)cc(F)c1)c1cc(F)cc(F)c1` ?
a: 7.76

q: Moving on to `O=C(C(=O)c1cc(Br)cs1)c1cc(Br)cs1`
a: 8.66

q: Moving on to `O=C(C(=O)c1ccco1)c1ccco1`
a: 5.07
